- Target Or System: T1, CYNO-TNFR2-His (cynomolgus monkey TNFR2, His tag) (cynomolgus monkey, UniProt A0A2K5VET2 132-366)
- T1 construct: Soluble antigen of the ForteBio assay; also called cTNFR2; not shown: His tag
- T1 sequence: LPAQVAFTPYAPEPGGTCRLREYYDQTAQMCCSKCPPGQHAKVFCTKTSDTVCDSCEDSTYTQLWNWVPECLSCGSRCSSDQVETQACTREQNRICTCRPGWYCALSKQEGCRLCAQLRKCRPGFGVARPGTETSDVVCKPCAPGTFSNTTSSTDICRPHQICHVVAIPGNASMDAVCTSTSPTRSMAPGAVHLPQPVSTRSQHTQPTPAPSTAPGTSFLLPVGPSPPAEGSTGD
- Assay Name: BLI (ForteBio), antibody on sensor, 100 nM CYNO-TNFR2-His in solution, 1:1 model
Observation Type: kon (M⁻¹ s⁻¹)
Numbers only, in M⁻¹ s⁻¹.

A selection of reference data follows.
chimeric antibody 3C4 (antibody, human IgG1, kappa, V domains shown) VH: QVQLQQSGPELVKPGASVTISCKASDYSFTNYYIHWVKQRPGQGLEWIGWIYPGNVITKYHEKFKGKAILTADTSSTTAYMQLNSLTSEDSAVYFCARSRATGYFDYWGQGTTLTVSS VL: DIQMTQTTSSLSASLGDRVTISCRASQDIRNYLNWFQQKPDGTIKLLIYYTSRLHSGVPSRFSGSGSGTDYSLTISNLEQEDMATYFCQQFNTLPWTFGGGTKLEIKR :: 1.41e+06
positive control antibody OPI (humanized antibody SBT-002e in WO 2017083525) (antibody, V domains shown, also called Benchmark OPI) VH: QVTLKESGPALVKPTQTLTLTCTFSGFSLSTSGMGVGWIRQPPGKALEWLAHIWWDDDKFYNPSLKSRLTISKDTSKNQVVLTMTNMDPVDTATYYCARLTGTRYFDYWGQGTTVTVSS VL: DVQMTQSPSSLSASVGDRVTITCKASQDINKFIAWYQQKPGKAPKLLIHYTSTLQPGIPSRFSGSGSGRDYTFTISSLQPEDIATYYCLQYGNLWTFGGGTKVEIK :: 284000
chimeric antibody 72G8 (antibody, human IgG1, kappa, V domains shown) VH: EVQLQQSGAELARPGASVMLSCKASGYTFTSYWMQWLKQRPGQGLEWIGAIYPGDGDTRYTQKFKGKATLTADKSSSTAYMQLSSLASEDSAVYYCVRDDGLYYAMDYWGQGTSVTVSS VL: QIVLTQSPTIMSASLGERVTMTCTASSSVSSSYLHWYQQKPGSSPKLWIYSTSNLASGVPARFSGSGSGTSYSLTISSMEAEDAATYYCHQYHRSPPTFGGGTKLEIKR :: 1.64e+06

Challenge: For the binder shown here, chimeric antibody 69B1 (antibody, human IgG1, kappa, V domains shown) VH: QIQLVQSGPELKKPGETVKISCKASGYTFTDYSMNWVKQAPGKGLKWMGWLNTETGEPIYADDFKGRFVFSLETSASTAYLEINNLNDEDTATYFCAREAIYYGTSYVLDYWGQGTSVTVSS VL: DIVLTQSPASLAVSLGQRATISCRASESVEYYGTNFMQWYQQKPGQPPKLLIYSASNVESGVPARFSGSGSGTDFSLNIHPVEEDDIAVYFCQQSRKDPSTFGEGTNLEIKR , give the reported kon.
Response given: 1.79e+06
